system: Saccharomyces cerevisiae; assay: protein stability index of tFT-peptide fusion (C-terminal peptide) (PSI (0-1 scale)); higher = more stable (slower turnover); conditions: genetic background: wild type; temperature: 37 C
EXPERIMENTAL ENDPOINT: protein stability index
Answer field: number only, no words.

IKSLLGCWHKHY	0.574
SGWGGGTWVKMG	0.191

Input line: Consider the sequence IRDGPWKRVLVV and give its measured protein stability index.
Output line: 0.245

Input line: Item: IFLLLRRIIALS
Output line: 0.0499

---

tested on: Saccharomyces cerevisiae; test: protein stability index of tFT-peptide fusion (C-terminal peptide) (PSI (0-1 scale)); higher = more stable (slower turnover); details: genetic background: doa10 deletion; temperature: 30 C
EXPERIMENTAL ENDPOINT: protein stability index

Please review the following examples before continuing.
MALAVRVVACGA	0.157
YVFSPLSCWASV	0.603
GWVQFVKAAVLF	0.197
IILRPQYVHYFL	0.482
AVSFVTLSIMVM	0.135

Input line: Consider the sequence GRGLGHWWTVRT and give its measured protein stability index.
Output line: 0.689

Input line: Item: IIFCVRVVGGDL
Output line: 0.332

Input line: Item: VARLGGRIGWEG
Output line: 0.652

Input line: Item: GLCGVCLVRCVG
Output line: 0.211

Input line: Item: WLTCSLVFNVFW
Output line: 0.448

---

test system: Saccharomyces cerevisiae; assay: protein stability index of tFT-peptide fusion (C-terminal peptide) (PSI (0-1 scale)); higher = more stable (slower turnover); details: genetic background: wild type; temperature: 30 C
EXPERIMENTAL ENDPOINT: protein stability index
Answer field: number only, no words.

VTGSHARFSVPE	0.658

# ---- query sequence ----
Input line: Recall the recorded protein stability index for LRRKTIEVSGLA with Saccharomyces cerevisiae and state it.
Output line: 0.573

---

tested on: Saccharomyces cerevisiae; assay: protein stability index of tFT-peptide fusion (C-terminal peptide) (PSI (0-1 scale)); higher = more stable (slower turnover); details: genetic background: wild type; temperature: 30 C
Please mark Condition met if the recorded protein stability index is equal to or greater than 0.7, and Condition not met if it falls below.

Here are 5 sequences together with their reported answers.
WERREGTGMRAG	Condition met
PSPLSPEHPLPI	Condition met
LSGLFMAARIFI	Condition not met
TFSVPLPPPLAP	Condition not met
HLPPPPTPFPLT	Condition met

Input line: hey, is protein stability index for this one >= 0.7? FSLRLFLVLALS
Output line: Condition not met

Input line: Item: FVGRWSSRSRGH
Output line: Condition met

Input line: Item: AHYPGRAHLLCL
Output line: Condition not met

---

test system: Saccharomyces cerevisiae; test: protein stability index of tFT-peptide fusion (C-terminal peptide) (PSI (0-1 scale)); higher = more stable (slower turnover); details: genetic background: wild type; temperature: 30 C
EXPERIMENTAL ENDPOINT: protein stability index
Answer field: number only, no words.

HTSSKEIDLLSF [ENT3 C-terminal 12 aa]	0.71
LECTPIINLFIV [MNL1 C-terminal 12 aa]	0.131

Input line: Consider the sequence LPRDSAMSAPDI [YMR085W C-terminal 12 aa] and give its measured protein stability index.
Output line: 0.708

Input line: Item: ISKKVFGNKLHQ [MTM1 C-terminal 12 aa]
Output line: 0.656

Input line: Item: FQPLLKKNQVGY [THI3 C-terminal 12 aa]
Output line: 0.693

Input line: Item: ENIEVILSNGRM [SNF12 C-terminal 12 aa]
Output line: 0.689

---

test system: Saccharomyces cerevisiae; assay: protein stability index of tFT-peptide fusion in deletion strain of DAS1 (PSI (0-1 scale)); higher = more stable (slower turnover)
EXPERIMENTAL ENDPOINT: protein stability index
Answer field: number only, no words.

Please review the following examples before continuing.
KIHKKGQKQKIN	0.494
ARWRVYLWRGAS	0.618
KKHKDGQKQKIN	0.602

Input line: Consider the sequence LVVYKSCVACIN and give its measured protein stability index.
Output line: 0.415

Input line: Item: ARWRVMLWRGAS
Output line: 0.705

Input line: Item: CTSCGYKFRTNG
Output line: 0.685

Input line: Item: CTSCGYKFMTNN
Output line: 0.676

Input line: Item: QKHKKGQKQKIN
Output line: 0.676

Input line: Item: VRGAVGGWRYVG
Output line: 0.686

Input line: Item: RLIQPLPVQFWN
Output line: 0.618

---

test system: Saccharomyces cerevisiae; assay: protein stability index of tFT-peptide fusion (C-terminal peptide) (PSI (0-1 scale)); higher = more stable (slower turnover); settings: genetic background: wild type; temperature: 30 C
Please mark 1 (yes) if the recorded protein stability index is equal to or greater than 0.7, and 0 (no) if it falls below.

Here are 5 sequences together with their reported answers.
AFMMICEKLITL [SEC59 C-terminal 12 aa]	0 (no)
HCLSLCTIQKMI [YOR231C-A C-terminal 12 aa]	0 (no)
LFSSRNTVCAPY [YIL134C-A C-terminal 12 aa]	1 (yes)
RRKKKLMDELNL [ISY1 C-terminal 12 aa]	0 (no)
DEQGNELSPRNY [MID2 C-terminal 12 aa]	1 (yes)

Input line: hey, is protein stability index for this one >= 0.7? VNLDVTEDDKQK [STE20 C-terminal 12 aa]
Output line: 0 (no)

Input line: Item: RFYFLSIFKYII [YBR191W-A C-terminal 12 aa]
Output line: 0 (no)

Input line: Item: TKSIFPSVNPSA [GPB2 C-terminal 12 aa]
Output line: 0 (no)

Input line: Item: MYCASFQLPANV [TRM5 C-terminal 12 aa]
Output line: 0 (no)

Input line: Item: LLVEKKDIPSNS [PRM4 C-terminal 12 aa]
Output line: 0 (no)

Input line: Item: TKCSLKNSISLT [VAB2 C-terminal 12 aa]
Output line: 1 (yes)

Input line: Item: IRRYPFLWIPFL [YMR316C-B C-terminal 12 aa]
Output line: 0 (no)

Input line: Item: SAIYLLIFRSTR [YPR177C C-terminal 12 aa]
Output line: 0 (no)

Input line: Item: FCAAYQGKKNNK [SLN1 C-terminal 12 aa]
Output line: 0 (no)

---

system: Saccharomyces cerevisiae; assay: protein stability index of tFT-peptide fusion in wild type (PSI (0-1 scale)); higher = more stable (slower turnover); details: genetic background: wild type
Please mark Satisfied if the recorded protein stability index is equal to or greater than 0.3, and Not satisfied if it falls below.

ARWRTGLWRGAS	Satisfied
PSHAASFWRVVG	Not satisfied
PDKRNHLIKLLNS	Not satisfied
LVVYLSCVAHIN	Not satisfied
RVTDLDAIYFRI	Satisfied

Input line: hey, is protein stability index for this one >= 0.3? RSLGVLLPLYFR
Output line: Satisfied

Input line: Item: RSLRVLLPLYFRI
Output line: Not satisfied

Input line: Item: KKHKKGQKQGIN
Output line: Satisfied

Input line: Item: RNIQPLPVQFLN
Output line: Not satisfied

Input line: Item: KRWRVGLWRGAS
Output line: Satisfied

Input line: Item: RITRLDAIYFRI
Output line: Satisfied

Input line: Item: LKILRQMMNHQN
Output line: Not satisfied

Input line: Item: PSLAASFWRVGG
Output line: Satisfied

---

tested on: Saccharomyces cerevisiae; test: protein stability index of tFT-peptide fusion (C-terminal peptide) (PSI (0-1 scale)); higher = more stable (slower turnover); settings: genetic background: wild type; temperature: 30 C
Please mark 1 if the recorded protein stability index is equal to or greater than 0.7, and 0 if it falls below.

CRLFFVFVFFWW	0
RLEKGEDREGKK	0
VHLCLPPLPLHT	0
FLIVLLVIFFGF	0
WGGIASLVASAA	0
IRDGPWKRVLVV	0
LFLLSLLDWGFR	0
VVRLGSNYYGGT	1

Input line: hey, is protein stability index for this one >= 0.7? PVLPPCLLPTPV
Output line: 0

Input line: Item: IENNIITRGTRV
Output line: 1

Input line: Item: PHTHPPASLPPV
Output line: 0

Input line: Item: GGWFFWVGAWVV
Output line: 0

Input line: Item: FSPTPSRLSCDR
Output line: 1

Input line: Item: LVLFVVGGWVSL
Output line: 0

Input line: Item: HPPLPPPLPGSP
Output line: 1

Input line: Item: LLSLSCLPLHFR
Output line: 0

Input line: Item: SDRSLPGVPVRF
Output line: 1

Input line: Item: PSSVPSTPTPPP
Output line: 0

Input line: Item: AALHPLRISASV
Output line: 0

---

We begin with a simple list: items and their reported protein stability index.
test system: Saccharomyces cerevisiae; assay: protein stability index of tFT-peptide fusion (C-terminal peptide) (PSI (0-1 scale)); higher = more stable (slower turnover); conditions: genetic background: das1 deletion; temperature: 30 C
Answer field: number only, no words.

Please review the following examples before continuing.
VFSGGGFFLKVV	0.651
LCLLPVCLWDVG	0.447
FPWGRIFLRLRT	0.47
ILFVCVCVLHVG	0.17
VFAFVVFLHFEC	0.237
PCYRPPLPALLS	0.62

Input line: Consider the sequence FECLLFVNLLVI and give its measured protein stability index.
Output line: 0.24

Input line: Item: SFLLGCCWLVLC
Output line: 0.27

Input line: Item: PWAHIRTVQTYV
Output line: 0.595

Input line: Item: LFVFTYPFLSWL
Output line: 0.591

Input line: Item: ICTHPCLRLRLN
Output line: 0.634

Input line: Item: LGVCLFFVRCWS
Output line: 0.189

Input line: Item: LILRVLFLFEPC
Output line: 0.389

Input line: Item: LCFTSVFTLFIC
Output line: 0.382

Input line: Item: KKNITRLKNKMT
Output line: 0.678

Input line: Item: FLLGWFLFFVCS
Output line: 0.32

Input line: Item: SYVFEFIVSVVF
Output line: 0.253

Input line: Item: FPPHFLPLVFLS
Output line: 0.56

Input line: Item: CICAFCSLNLLC
Output line: 0.61

Input line: Item: VPQQWFAETGRC
Output line: 0.668

Input line: Item: GGWRVLHAWVAV
Output line: 0.546

Input line: Item: YMPKHKIQKLMQ
Output line: 0.639

Input line: Item: PRLRPQTVAFLS
Output line: 0.651

Input line: Item: VCFCFLRFLSLL
Output line: 0.572

Input line: Item: FGLMCFIFYVLV
Output line: 0.236

Input line: Item: NLSYFFFSVLFF
Output line: 0.506

Input line: Item: PLSNLCRVLTFI
Output line: 0.575

Input line: Item: GAVGRWGWVSFV
Output line: 0.653

Input line: Item: MACLRLTVYVMG
Output line: 0.135

Input line: Item: RTWLHLVVPVWG
Output line: 0.222

Input line: Item: GVVCCVVVGRMG
Output line: 0.474

Input line: Item: FPPCSFLGFLVF
Output line: 0.571

Input line: Item: LLLLFPSPLFIR
Output line: 0.235

Input line: Item: WDPEVVHRLWLN
Output line: 0.662

Input line: Item: WVLFRLPYQFFS
Output line: 0.57

The values you see were collected from the supplement of paper PMC10724198.
